# Test system: CYP450 enzymes (CYP3A4, CYP2C19, CYP2D6)
# Assay Remarks: in vitro
# Recorded Conditions: human
pIC50: −log10 of the molar value.
Property Measured: pIC50

Problem: State its pIC50: CC(=O)O[C@H]1C[C@H]2[C@@H]([C@H](OC(C)=O)C[C@@H]3C[C@H](N)CC[C@@]32C)[C@@H]2CC[C@H]([C@H](C)CCCNCCCCNc3ccnc4cc(Cl)ccc34)[C@@]12C [Compound 16]
Result: 5.00 to 6.00

---

Parameter IC50: see the listing below.
# Assay Target: BoNT/A holotoxin (Clostridium botulinum, UniProt P0DPI1)
# Sequence (P0DPI1 2-448 limits assumed): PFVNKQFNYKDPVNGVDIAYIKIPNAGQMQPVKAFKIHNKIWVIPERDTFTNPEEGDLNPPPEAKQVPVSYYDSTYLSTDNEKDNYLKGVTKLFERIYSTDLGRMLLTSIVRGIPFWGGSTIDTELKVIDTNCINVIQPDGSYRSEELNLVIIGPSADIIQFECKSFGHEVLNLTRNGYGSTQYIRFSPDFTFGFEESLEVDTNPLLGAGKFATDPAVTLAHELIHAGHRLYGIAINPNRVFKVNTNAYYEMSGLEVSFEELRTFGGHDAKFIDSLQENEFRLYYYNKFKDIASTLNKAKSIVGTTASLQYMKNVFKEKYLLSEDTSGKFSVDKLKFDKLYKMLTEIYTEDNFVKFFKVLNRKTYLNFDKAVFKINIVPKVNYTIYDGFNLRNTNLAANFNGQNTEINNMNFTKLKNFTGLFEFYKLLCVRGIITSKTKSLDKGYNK
# Assay Remarks: cell-based

Molecule	Property Measured	Val
CC(CCN(C)CC12CC3CC(CC(C3)C1)C2)Nc1ccnc2cc(Cl)ccc12 (stereo not shown)	IC50	< 10 µM

Problem: Give the value of IC50 reported for the following: CC(CCCNc1ccnc2ccccc12)NCc1ccc(-c2csc3ccc(F)cc23)cc1 (stereo not shown)
Result: 10 to 20 µM

Problem: Query IC50 for CC(=O)O[C@H]1C[C@H]2[C@@H]([C@H](OC(C)=O)C[C@@H]3C[C@H](NCCCCCCNc4ccnc5cc(Cl)ccc45)CC[C@@]32C)[C@@H]2CC[C@H]([C@H](C)CCCNCCCCCCNc3ccnc4cc(Cl)ccc34)[C@@]12C [Compound 1, reference compound]
Result: < 10 µM

Problem: Quickly give me recorded IC50 for "CC(=O)O[C@H]1C[C@H]2[C@@H]([C@H](OC(C)=O)C[C@@H]3C[C@H](N)CC[C@@]32C)[C@@H]2CC[C@H]([C@H](C)CCCNCCCCNc3ccnc4ccccc34)[C@@]12C"
Result: 10 to 20 µM

Problem: Let me know recorded IC50 for CC(CCCN(C)Cc1ccc(-c2csc3ccc(C#N)cc23)cc1)Nc1ccnc2ccccc12 (stereo not shown) , thanks.
Result: 10 to 20 µM

Problem: Quick one: give measured IC50 for "C[C@H](CCCNCCCCNc1ccnc2cc(Cl)ccc12)[C@H]1CC[C@H]2[C@@H]3[C@H](O)C[C@@H]4C[C@H](N)CC[C@]4(C)[C@H]3C[C@H](O)[C@]12C"
Result: 8 to 16 µM

Problem: Return reported IC50. Input molecule: "CN(CCCCCCCCNc1ccnc2ccccc12)Cc1ccc(-c2ccc(-c3ccc(C#N)cc3)s2)cc1"
Result: 5 to 10 µM
